B1: 6NMW (parent)
chain: QGDIVVALYPYDGIHPDDLSFKKGEKMKVLEEHGEWWKAKSLLTKKEGFIPSNYVAKLN

Variants of: B1
test.summary: folding stability dG (cDNA display proteolysis); higher = more stable
assay.context: PBS, room temperature
Everything with folding stability dG lower than 3 kcal/mol is not met; everything else, including exactly 3 kcal/mol, is met.

G13Y    not met

Item P10M with folding stability dG of 3 kcal/mol or above?
not met

Tell me whether folding stability dG is at least 3 kcal/mol here: Q1G
met
